target: CXCR7 (Homo sapiens (Human), UniProt P25106); test: PathHunter CHO-K1 CXCR7 b-arrestin assay (agonistic activity); assay type: cell-based; conditions: PathHunter CHO-K1 CXCR7 b-arrestin cell line
Sequence (P25106 whole entry): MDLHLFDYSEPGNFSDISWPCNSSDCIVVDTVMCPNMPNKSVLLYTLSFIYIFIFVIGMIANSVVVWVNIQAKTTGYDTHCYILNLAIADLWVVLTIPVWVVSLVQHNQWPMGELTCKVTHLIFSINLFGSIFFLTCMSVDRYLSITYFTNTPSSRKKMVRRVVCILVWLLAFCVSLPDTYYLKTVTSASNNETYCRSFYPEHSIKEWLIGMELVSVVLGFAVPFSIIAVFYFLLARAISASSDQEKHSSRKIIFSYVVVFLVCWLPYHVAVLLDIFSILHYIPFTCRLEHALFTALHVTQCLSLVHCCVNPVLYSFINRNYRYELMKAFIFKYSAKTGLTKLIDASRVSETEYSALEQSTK
Sequence (P32121 whole entry partner): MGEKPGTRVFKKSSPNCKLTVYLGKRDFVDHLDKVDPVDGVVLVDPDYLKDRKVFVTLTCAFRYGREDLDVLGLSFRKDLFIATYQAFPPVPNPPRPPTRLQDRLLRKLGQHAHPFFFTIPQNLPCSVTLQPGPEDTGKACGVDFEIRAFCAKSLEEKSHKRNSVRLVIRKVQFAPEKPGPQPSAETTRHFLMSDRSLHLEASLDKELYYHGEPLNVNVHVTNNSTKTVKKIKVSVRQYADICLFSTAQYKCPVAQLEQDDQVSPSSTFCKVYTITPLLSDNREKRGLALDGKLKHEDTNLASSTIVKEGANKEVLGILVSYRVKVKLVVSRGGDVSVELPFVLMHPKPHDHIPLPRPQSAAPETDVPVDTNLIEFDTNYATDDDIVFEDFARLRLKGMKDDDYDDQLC
READOUT: EC50 (nM)
Provide only the numeric value, understood in nM.

# COMPOUND, MEASURE UNIT, EC50
rows = [
    ("CC(C)(C)NC(=O)C1CCN(Cc2cccc(NC(=O)c3ccc(Cl)cn3)c2)CC1 [Example 1.339]", "nM", 0.6),
]

Requested read-out: EC50. Entry: O=C(Nc1cccc(CN2CCC(C(=O)NC3CCCCC3)CC2)c1)c1n[nH]c2ccccc12 [Example 1.008]
35

Requested read-out: EC50. Entry: O=C(Nc1cccc(CN2CCC(C(=O)NC3CCCCC3)CC2)c1)c1cc2cccnc2[nH]1 [Example 1.146]
8
